Listed below: RP-LC retention time values for each entry.
# Test protocol: gradient 5% acetonitrile 3 min, to 50% in 2 min, to 85% in 15 min, held 3 min, 100 µL/min
# Assay conditions: column: Zorbax Extend-C18 2.1 x 50 mm; eluents: water / acetonitrile, 0.1% formic acid
Give the value in s but do not write s after it.

Ask: Any idea what its RP-LC retention time is? The molecule is O=C(c1ccc(-c2csc(C3CC3)n2)cc1)N1CCCCC1
Result: 971

Ask: Please answer likewise for CCCCNC(=O)CCC1CCN(c2cc(NC3CC3)ncn2)CC1
Result: 629

Ask: Please answer likewise for COc1ccc(-c2noc(-c3nc(Cc4ccccc4)no3)n2)cc1OC
Result: 1100

Ask: Please answer likewise for O=c1n(Cc2ccc(Cl)cc2)nc2c(S(=O)(=O)N3CCCCCC3)cccn12
Result: 991

Ask: Please answer likewise for CCN(CC)S(=O)(=O)c1ccc2nc(NCc3cc(F)cc(F)c3)cnc2c1
Result: 1060

Ask: Please answer likewise for CC(C)n1c(CN2CCOCC2)nc2ccccc21
Result: 556

Ask: Please answer likewise for O=c1c2cnn(-c3ccc(F)cc3)c2ncn1Cc1nc(-c2cccc(Br)c2)no1
Result: 1130

Ask: Please answer likewise for CCCn1c(CCNC(=O)c2ccccc2F)nc2cccnc21
Result: 644

Ask: Please answer likewise for Cc1nc(CC(=O)NC(C)c2ccccc2)sc1C(=O)NCC(C)C (centres undefined)
Result: 763

Ask: Please answer likewise for O=C(c1ccc2c(c1)OCO2)N1CCCCC1
Result: 722

Ask: Please answer likewise for CC(=O)Nc1ccc(SCC(=O)N(C(C)C)C(C)C)nn1
Result: 675

Ask: Please answer likewise for O=C([C@@H]1C[C@H](Oc2cccnc2)CN1C(=O)c1ccco1)N1CCCC1
Result: 553

Ask: Please answer likewise for O=C(NCc1ccccc1F)c1ccc2c(c1)CNCCO2
Result: 605

Ask: Please answer likewise for Cc1cc(NC(=O)Cn2ccn3nc(-c4ccc(F)cc4)c(CO)c3c2=O)n[nH]1
Result: 666

Ask: Please answer likewise for COc1ccc(S(=O)(=O)N2CCc3nc(CNC(=O)C4CCC4)n(C)c3C2)cc1
Result: 628

Ask: Please answer likewise for Cc1ccccc1Cn1cc(C(=O)O)c(S(=O)(=O)N2CCSCC2)n1
Result: 848

Ask: Please answer likewise for CCn1ccc(C(=O)N2CC(Oc3cccc(-c4nc(C)no4)c3)C2)n1
Result: 808

###

# Test protocol: gradient 5% acetonitrile 3 min, to 50% in 2 min, to 85% in 15 min, held 3 min, 100 µL/min
# Assay conditions: column: Zorbax Extend-C18 2.1 x 50 mm; eluents: water / acetonitrile, 0.1% formic acid
Listed below: RP-LC retention time values for each entry.
Give the value in s but do not write s after it.

Would you please look over these solved cases?
COc1ccc2[nH]cc(CCNC(=O)c3cc(-c4ccccn4)nc4ccccc34)c2c1	814
Cc1nc(C2CN(S(=O)(=O)c3c(C)c(C)cc(C)c3C)CC23CCOCC3)no1 (stereo not given)	1020
O=C([C@@H]1C[C@H](F)CN1C(=O)c1ccccc1)N1CCCCC1	668
COc1cccc(C(O)CN2CCN(c3ccc(F)cc3)CC2)c1 (stereo not given)	660

--- query ---
Ask: Any idea what its RP-LC retention time is? The compound is CSc1ccc(Cl)c(C(=O)Nc2ccc3c(N4CCOCC4)ncnc3c2)c1
Result: 669
